Experiment Description: Phase 1 first-in-human study (NCT04178902): pharmacokinetics
Format: in vivo
Experimental Conditions: human, in vivo, 0.32 mg/kg, Cycle 1 Day 15, DOSE_MGKG 0.32, cohort 2, PKTIME 8.5; read-out: CONC_NGML
Property: concentration at […]

# concentration at […] of `Cc1c(Cl)c2c(Cl)c(C)c1-c1c(-c3ccc(F)cc3)sc3ncnc(c13)O[C@@H](C(=O)O)Cc1cc(ccc1OCc1ccnc(-c3ccc(OC[C@H]4COCCO4)cc3)n1)OC[C@@H](CN1CCN(C)CC1)O2` = 0 ng/mL

###

Experiment Description: Phase 1 first-in-human study (NCT04178902): pharmacokinetics
Format: in vivo
Experimental Conditions: human, in vivo, 0.265 mg/kg, Cycle 1 Day 1, DOSE_MGKG 0.265, cohort 3, PKTIME 1.5; read-out: CONC_NGML
Property: concentration at 1.5 h (ng/mL)
Give a bare numeral; the unit ng/mL is implied.

# concentration at 1.5 h of `Cc1c(Cl)c2c(Cl)c(C)c1-c1c(-c3ccc(F)cc3)sc3ncnc(c13)O[C@@H](C(=O)O)Cc1cc(ccc1OCc1ccnc(-c3ccc(OC[C@H]4COCCO4)cc3)n1)OC[C@@H](CN1CCN(C)CC1)O2` = 14.9

###

Target Entity: off-target receptors, ion channels, and transporters (Homo sapiens, UniProt P08913)
Sequence (P08913 whole entry): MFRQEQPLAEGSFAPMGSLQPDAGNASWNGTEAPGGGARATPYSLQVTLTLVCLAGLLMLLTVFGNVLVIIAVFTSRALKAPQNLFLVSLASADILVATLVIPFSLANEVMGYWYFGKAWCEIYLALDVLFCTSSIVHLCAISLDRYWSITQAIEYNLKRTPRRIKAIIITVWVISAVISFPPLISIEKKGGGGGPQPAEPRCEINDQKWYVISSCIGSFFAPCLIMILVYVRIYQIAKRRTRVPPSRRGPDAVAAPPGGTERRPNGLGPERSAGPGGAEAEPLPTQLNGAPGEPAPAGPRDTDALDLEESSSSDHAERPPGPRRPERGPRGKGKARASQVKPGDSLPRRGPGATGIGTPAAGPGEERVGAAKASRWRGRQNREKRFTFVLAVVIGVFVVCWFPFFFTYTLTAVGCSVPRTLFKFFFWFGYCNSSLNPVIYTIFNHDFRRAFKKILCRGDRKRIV
Experiment Description: Off-target profiling (Supplementary Data 1)
Experimental Conditions: read-out: Alpha2A CHO Human - EC50; Bioprofiling 6pt Ag
pEC50: −log10 of the molar value.
Property: pEC50

# pEC50 of `Cc1c(Cl)c2c(Cl)c(C)c1-c1c(-c3ccc(F)cc3)sc3ncnc(c13)O[C@@H](C(=O)O)Cc1cc(ccc1OCc1ccnc(-c3ccc(OC[C@H]4COCCO4)cc3)n1)OC[C@@H](CN1CCN(C)CC1)O2` = < 5.00

###

Experiment Description: Phase 1 first-in-human study (NCT04178902): pharmacokinetics
Format: in vivo
Experimental Conditions: human, in vivo, 0.08 mg/kg, Cycle 1 Day 1, DOSE_MGKG 0.08, cohort 1, PKTIME 24.5; read-out: CONC_NGML
Property: concentration at […] (ng/mL)
Give a bare numeral; the unit ng/mL is implied.

# concentration at […] of `Cc1c(Cl)c2c(Cl)c(C)c1-c1c(-c3ccc(F)cc3)sc3ncnc(c13)O[C@@H](C(=O)O)Cc1cc(ccc1OCc1ccnc(-c3ccc(OC[C@H]4COCCO4)cc3)n1)OC[C@@H](CN1CCN(C)CC1)O2` = 0

###

Target Entity: dog MCL1 (Canis lupus familiaris, UniProt Q8HYS5)
Construct: rhesus monkey (iso4, NM_001 1089 3 7, AA 171-327), dog (NM_001 0030 16, AA17 1- 327)
Sequence (Q8HYS5 171-327): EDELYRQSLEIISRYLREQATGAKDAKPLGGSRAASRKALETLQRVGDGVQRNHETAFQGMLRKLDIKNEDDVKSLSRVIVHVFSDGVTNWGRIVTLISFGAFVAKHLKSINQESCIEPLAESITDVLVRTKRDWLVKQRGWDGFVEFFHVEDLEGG
Experiment Description: TR-FRET binding assay, MCL-1 orthologs
Experimental Conditions: read-out: Ki, canine MCL-1
Property: Ki

# Ki of `Cc1c(Cl)c2c(Cl)c(C)c1-c1c(-c3ccc(F)cc3)sc3ncnc(c13)O[C@@H](C(=O)O)Cc1cc(ccc1OCc1ccnc(-c3ccc(OC[C@H]4COCCO4)cc3)n1)OC[C@@H](CN1CCN(C)CC1)O2` = < 0.1 nM

###

Tested on: AMO-1 cells
Experiment Description: In vitro cell viability assay (CellTiter-Glo)
Assay type: cell-based, human
Experimental Conditions: Homo sapiens, AMO1, 10% human serum, contact time 2 hr, washout, viability at 24 h; read-out: AMO-1 Mean EC50
Property: pEC50
The read-out pEC50 is expressed as -log10 of concentration in moles per litre.

Short answer on AMO-1 cells for `Cc1c(Cl)c2c(Cl)c(C)c1-c1c(-c3ccc(F)cc3)sc3ncnc(c13)O[C@@H](C(=O)O)Cc1cc(ccc1OCc1ccnc(-c3ccc(OC[C@H]4COCCO4)cc3)n1)OC[C@@H](CN1CCN(C)CC1)O2` , pEC50: 7.57

###

Experiment Description: Phase 1 first-in-human study (NCT04178902): pharmacokinetics
Type: in vivo
Experimental Conditions: human, plasma, intravenous, 0.32 mg/kg, Cycle 1 day 1, dose level 0.32 mg/kg (only half of this dose given), N=2, individual values; read-out: Tmax (converted)
Property: Tmax
Remember to put the unit after the number in your answer.

# Tmax of `Cc1c(Cl)c2c(Cl)c(C)c1-c1c(-c3ccc(F)cc3)sc3ncnc(c13)O[C@@H](C(=O)O)Cc1cc(ccc1OCc1ccnc(-c3ccc(OC[C@H]4COCCO4)cc3)n1)OC[C@@H](CN1CCN(C)CC1)O2` = 20 min

###

Property: IC50

Short answer on UniProt:P07948 for `Cc1c(Cl)c2c(Cl)c(C)c1-c1c(-c3ccc(F)cc3)sc3ncnc(c13)O[C@@H](C(=O)O)Cc1cc(ccc1OCc1ccnc(-c3ccc(OC[C@H]4COCCO4)cc3)n1)OC[C@@H](CN1CCN(C)CC1)O2` , IC50: > 10 µM

###

Experiment Description: Phase 1 first-in-human study (NCT04178902): pharmacokinetics
Type: in vivo
Experimental Conditions: human, in vivo, 0.08 mg/kg, Cycle 1 Day 1, DOSE_MGKG 0.08, cohort 1, PKTIME 0.333333; read-out: CONC_NGML
Property: concentration at 20 min
Remember to put the unit after the number in your answer.

# concentration at 20 min of Cc1c(Cl)c2c(Cl)c(C)c1-c1c(-c3ccc(F)cc3)sc3ncnc(c13)O[C@@H](C(=O)O)Cc1cc(ccc1OCc1ccnc(-c3ccc(OC[C@H]4COCCO4)cc3)n1)OC[C@@H](CN1CCN(C)CC1)O2 [ABBV-467] = 132 ng/mL

###

Experiment Description: Phase 1 first-in-human study (NCT04178902): pharmacokinetics
Assay type: in vivo
Experimental Conditions: human, in vivo, 0.08 mg/kg, Cycle 1 Day 1, DOSE_MGKG 0.08, cohort 1, PKTIME 4.5; read-out: CONC_NGML
Property: concentration at 4.5 h (ng/mL)
Give a bare numeral; the unit ng/mL is implied.

# concentration at 4.5 h of `Cc1c(Cl)c2c(Cl)c(C)c1-c1c(-c3ccc(F)cc3)sc3ncnc(c13)O[C@@H](C(=O)O)Cc1cc(ccc1OCc1ccnc(-c3ccc(OC[C@H]4COCCO4)cc3)n1)OC[C@@H](CN1CCN(C)CC1)O2` = 0

###

Experiment Description: Phase 1 first-in-human study (NCT04178902): pharmacokinetics
Assay type: in vivo
Experimental Conditions: human, plasma, intravenous, 0.53 mg/kg, Cycle 1 day 1, dose level 0.53 mg/kg (only half of this dose given), N=3, harmonic mean (pseudo SD); read-out: t1/2
Property: half-life (min)
Give a bare numeral; the unit min is implied.

# half-life of Cc1c(Cl)c2c(Cl)c(C)c1-c1c(-c3ccc(F)cc3)sc3ncnc(c13)O[C@@H](C(=O)O)Cc1cc(ccc1OCc1ccnc(-c3ccc(OC[C@H]4COCCO4)cc3)n1)OC[C@@H](CN1CCN(C)CC1)O2 [ABBV-467] = 55.5

###

Test system: H929 cells
Experiment Description: In vitro cell viability assay (CellTiter-Glo)
Format: cell-based, human
Experimental Conditions: Homo sapiens, NCI-H929, 10% human serum, contact time 1 hr, washout, viability at 24 h; read-out: H929 Mean EC50
Property: pEC50
The read-out pEC50 is expressed as -log10 of concentration in moles per litre.

# pEC50 of Cc1c(Cl)c2c(Cl)c(C)c1-c1c(-c3ccc(F)cc3)sc3ncnc(c13)O[C@@H](C(=O)O)Cc1cc(ccc1OCc1ccnc(-c3ccc(OC[C@H]4COCCO4)cc3)n1)OC[C@@H](CN1CCN(C)CC1)O2 [ABBV-467] = 7.07

###

Target Entity: human MCL-1 (Homo sapiens)
Sequence (Q07820 whole entry): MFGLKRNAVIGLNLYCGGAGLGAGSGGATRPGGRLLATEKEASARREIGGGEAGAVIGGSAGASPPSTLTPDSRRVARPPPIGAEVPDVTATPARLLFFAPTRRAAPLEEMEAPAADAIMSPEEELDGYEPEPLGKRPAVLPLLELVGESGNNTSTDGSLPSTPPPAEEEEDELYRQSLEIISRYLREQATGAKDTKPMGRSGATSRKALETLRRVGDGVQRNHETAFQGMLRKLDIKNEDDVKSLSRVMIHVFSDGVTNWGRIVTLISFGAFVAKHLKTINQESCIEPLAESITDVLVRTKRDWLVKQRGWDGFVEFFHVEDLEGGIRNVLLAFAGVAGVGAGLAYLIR
Experiment Description: Time-resolved FRET binding assay
Experimental Conditions: TR-FRET, arithmetic mean; read-out: Arithmetic Mean Ki, MCL1
pKi: −log10 of the molar value.
Property: pKi

# pKi of `Cc1c(Cl)c2c(Cl)c(C)c1-c1c(-c3ccc(F)cc3)sc3ncnc(c13)O[C@@H](C(=O)O)Cc1cc(ccc1OCc1ccnc(-c3ccc(OC[C@H]4COCCO4)cc3)n1)OC[C@@H](CN1CCN(C)CC1)O2` = > 11.00

###

Target Entity: BCL-XL (Homo sapiens, UniProt Q07817)
Sequence (Q07817 whole entry): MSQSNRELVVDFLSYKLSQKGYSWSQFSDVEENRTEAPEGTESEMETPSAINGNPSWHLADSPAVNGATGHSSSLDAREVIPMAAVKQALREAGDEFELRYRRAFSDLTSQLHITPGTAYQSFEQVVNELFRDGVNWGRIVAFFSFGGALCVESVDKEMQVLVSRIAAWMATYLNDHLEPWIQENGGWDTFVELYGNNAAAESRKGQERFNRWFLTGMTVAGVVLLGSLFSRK
Experiment Description: Time-resolved FRET binding assay
Experimental Conditions: TR-FRET, individual determinations; read-out: Individual Ki, BCL-XL
pKi: −log10 of the molar value.
Give measured pKi for each item. Keep answers brief.

# pKi of COc1ccccc1-c1nccc(COc2ccccc2CC(Oc2ncnc3sc(-c4ccc(F)cc4)c(-c4ccc(OCCN5CCN(C)CC5)c(Cl)c4C)c23)C(=O)O)n1 (stereo not drawn) [Compound 1, reference compound] = < 6.18

# pKi of COc1ccccc1-c1nccc(COc2ccc3cc2CC(C(=O)O)Oc2ncnc4sc(-c5ccc(F)cc5)c(c24)-c2ccc(c(Cl)c2C)N(CCN2CCN(C)CC2)C3)n1 (stereo not drawn) = < 6.18

# pKi of `Cc1c(Cl)c2c(Cl)c(C)c1-c1c(-c3ccc(F)cc3)sc3ncnc(c13)O[C@@H](C(=O)O)Cc1cc(ccc1OCc1ccnc(-c3ccc(OC[C@H]4COCCO4)cc3)n1)OC[C@@H](CN1CCN(C)CC1)O2` = < 6.42
